# tested.target: activated ERK2 (Homo sapiens (Human), UniProt P28482)
# Sequence (P28482 whole entry): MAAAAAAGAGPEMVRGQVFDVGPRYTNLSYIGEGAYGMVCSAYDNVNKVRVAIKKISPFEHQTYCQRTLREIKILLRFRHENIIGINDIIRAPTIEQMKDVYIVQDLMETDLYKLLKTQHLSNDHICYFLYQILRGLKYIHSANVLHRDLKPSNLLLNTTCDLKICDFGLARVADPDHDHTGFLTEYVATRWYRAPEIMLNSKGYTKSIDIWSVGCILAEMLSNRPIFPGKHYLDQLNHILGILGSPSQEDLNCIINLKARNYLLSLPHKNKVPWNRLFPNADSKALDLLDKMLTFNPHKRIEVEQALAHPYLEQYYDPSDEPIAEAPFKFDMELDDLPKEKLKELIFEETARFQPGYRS
# protocol.notes: Activated ERK2 kinase assay, ERK2 New conditions (AlphaScreen, ERKtide phosphorylation)
# Assay type: biochemical
# run.parameters: 0.25 nM ERK2, 200 nM ERKtide peptide, 35 μM ATP, 30 min preincubation
observed.property: pIC50
A value of pIC50 is the negative decimal logarithm of a concentration given in moles per litre.

compound="Nc1ncc([C@H]2CCS(=O)(=O)C2)cc1-c1ccc(C(=O)NCc2ccccc2)c(F)c1 (single isomer, unassigned)" observed_property=pIC50 test_value=6.45
compound=Cn1cc(-c2cnc(N)c(-c3ccc(C(=O)NCc4ccsc4)c(F)c3)c2)cn1 observed_property=pIC50 test_value=7.55
compound="COC(=O)N1CCCC(c2cnc(N)c(-c3ccc(C(=O)N[C@H](CO)c4ccccc4)c(F)c3)n2)C1 (stereo partly shown)" observed_property=pIC50 test_value=7.87
compound="CS(=O)(=O)N1CCCC(c2cnc(N)c(-c3ccc(C(=O)N[C@H](CO)c4ccccc4)c(F)c3)n2)C1 (stereo partly shown)" observed_property=pIC50 test_value=7.92

Data request, read-out pIC50, for CS(=O)(=O)N1CCC(c2cnc(N)c(-c3ccc(C(=O)N[C@H](CO)c4ccccc4)c(F)c3)n2)CC1
8.41

Data request, read-out pIC50, for Cn1cc(-c2cnc(N)c(-c3ccc(C(=O)N[C@H](CO)c4cccc(Cl)c4)c(F)c3)c2)c(C#N)n1
9.19

Data request, read-out pIC50, for Cn1cc(-c2cnc(N)c(-c3ccc(C(=O)NC(CN)c4cccc(Cl)c4)c(F)c3)c2)cn1 (stereo not shown)
9.70

---

# tested.target: activated ERK2 (Homo sapiens (Human), UniProt P28482)
# protocol.notes: Activated ERK2 kinase assay, ERK2 New conditions (AlphaScreen, ERKtide phosphorylation)
# Assay type: biochemical
# run.parameters: 0.25 nM ERK2, 200 nM ERKtide peptide, 35 μM ATP, 30 min preincubation
Entries and their pIC50
A value of pIC50 is the negative decimal logarithm of a concentration given in moles per litre.

Known results for molecules:
molecule=Nc1ncc(C2CCOCC2)nc1-c1ccc(C(=O)N2CCOC[C@@H]2c2ccccc2)cc1 observed_property=pIC50 test_value=7.04
molecule="CS(=O)(=O)[C@@H]1CCC[C@@H](c2cnc(N)c(-c3ccc(C(=O)NCc4ccccc4)c(F)c3)n2)C1 (racemic)" observed_property=pIC50 test_value=6.44
molecule=Cc1cccc(CNC(=O)c2ccc(-c3nc(C4CCOCC4)cnc3N)cc2F)n1 observed_property=pIC50 test_value=7.60
molecule=Nc1ncc([C@H]2CC[S@+]([O-])CC2)cc1-c1ccc(C(=O)N[C@H](CO)c2cccc(Cl)c2)c(F)c1 observed_property=pIC50 test_value=8.26
molecule="C[C@@H](NC(=O)c1ccc(-c2cc(C3CCC(=O)NC3)cnc2N)cc1F)c1cccc(Cl)c1 (mixture of isomers)" observed_property=pIC50 test_value=9.26

pIC50 of C[C@@H](NC(=O)c1ccc(-c2cc([C@H]3CCN(C)C(=O)C3)cnc2N)cc1F)c1ccccc1 on activated ERK2 (Homo sapiens (Human), UniProt P28482)?
7.13

pIC50 of Nc1ncc(C2CCOCC2)nc1-c1ccc(C(=O)N[C@@H]2CCCN(Cc3ccccc3F)C2)c(F)c1 on activated ERK2 (Homo sapiens (Human), UniProt P28482)?
6.77
